# Tested on: THP-1 cells
# Method Summary: enhancing effect for differentiation-induction from human monocyte to macrophage (THP-1/Mφ system, MTT readout)
# Type: cell-based
# Experimental Setup: 3 μM; in comparison with enhancing action for differentiation-induction of EM 100 μM
Property Name: activities in THP-1/Mφ system, Treated conc. 3 μM

• CCC(O)C(C)(O)C1OC(=O)C(C)C(OC2CC(C)(OC)C(O)C(C)O2)C(C)C(OC2OC(C)CC(NCc3ccccc3)C2O)C2(C)CC(C)=C(O2)C1C (stereo not drawn) = + (enhanced 50-100%)
• CCC(O)C(C)(O)C1OC(=O)C(C)C(O)C(C)C(OC2OC(C)CC(N(C)C)C2O)C2(C)CC(C)=C(O2)C1C (stereo not drawn) = −
• COC1(C)CC(OC2C(C)C(=O)OC(C(C)N)C(C)C3=C(C)CC(C)(O3)C(OC3OC(C)CC(N(C)C)C3O)C2C)OC(C)C1O (stereo not drawn) = −
• CCC(O)C(C)(O)C1OC(=O)C(C)C(OC2CC(C)(OC)C(O)C(C)O2)C(C)C(OC2OC(C)CC(N(CCCCCCCCCCBr)CCCCCCCCCCBr)C2O)C2(C)CC(C)=C(O2)C1C (stereo not drawn) = + (enhanced 50-100%)
